TGT: AMPA receptors
EXPERIMENTAL DETAILS: AMPA receptor binding affinity (Honore et al.)
pIC50: −log10 of the molar value.
QUANTITY NAME: pIC50

Asked: Give the measured pIC50 of Cc1c([N+](=O)[O-])cc2[nH]c(=O)c(=O)[nH]c2c1CN(C)C(=O)Cc1ccccc1 .
Given back: 6.46

Asked: Give the measured pIC50 of Cc1c([N+](=O)[O-])cc2[nH]c(=O)c(=O)[nH]c2c1CN(C)C(=O)C1CCCCC1 .
Given back: 6.04

P: CC(=O)N(C)Cc1c(C)c([N+](=O)[O-])cc2[nH]c(=O)c(=O)[nH]c12
Q: Cc1c([N+](=O)[O-])cc2[nH]c(=O)c(=O)[nH]c2c1CN(C)C(=O)c1ccc(Cl)c(Cl)c1
Asked: Exercise: compare P and Q ; which one has the greater pIC50? Kindly give the label for the entry you pick.
Given back: P
(P: 6.46, Q: 5.77)

----------
TGT: kainate site (non-NMDA receptor)
EXPERIMENTAL DETAILS: kainate site (non-NMDA receptor) binding affinity (London and Coyle)
QUANTITY NAME: IC50 KA (µM)

Asked: Give the measured IC50 KA of Cc1c([N+](=O)[O-])cc2[nH]c(=O)c(=O)[nH]c2c1CN(C)C(=O)c1ccc([N+](=O)[O-])cc1 .
Given back: 0.95

Asked: Give the measured IC50 KA of Cc1c([N+](=O)[O-])cc2[nH]c(=O)c(=O)[nH]c2c1CN(C)C(=O)c1cccs1 .
Given back: 1.23

1: Cc1c([N+](=O)[O-])cc2[nH]c(=O)c(=O)[nH]c2c1CN(C)C(=O)c1cc2ccccc2s1
2: Cc1c([N+](=O)[O-])cc2[nH]c(=O)c(=O)[nH]c2c1CN(C)C(=O)c1ccc(Cl)c(Cl)c1
Asked: Exercise: compare 1 and 2 ; which one has the greater IC50 KA? Kindly give the label for the entry you pick.
Given back: 1

----------
TGT: kainate site (non-NMDA receptor)
EXPERIMENTAL DETAILS: kainate site (non-NMDA receptor) binding affinity (London and Coyle)
QUANTITY NAME: IC50 KA (nM)

P: Cc1c([N+](=O)[O-])cc2[nH]c(=O)c(=O)[nH]c2c1CN(C)C(=O)c1ccco1
Q: Cc1c([N+](=O)[O-])cc2[nH]c(=O)c(=O)[nH]c2c1CN(C)C(=O)C1CCCCC1
Asked: Exercise: compare P and Q ; which one has the greater IC50 KA? Kindly give the label for the entry you pick.
Given back: Q

----------
TGT: glycine (GLY) site of the NMDA receptor (Rattus norvegicus, UniProt P35439)
Construct: measured as described in Jones S. M., et al., Pharmacol. Methods, 1989;21:161
EXPERIMENTAL DETAILS: glycine (GLY) site of the NMDA receptor binding affinity (Jones et al.)
QUANTITY NAME: IC50 (µM)

Asked: Observed IC50 on glycine (GLY) site of the NMDA receptor (Rattus norvegicus, UniProt P35439) for Cc1c([N+](=O)[O-])cc2[nH]c(=O)c(=O)[nH]c2c1CN(C)C(=O)c1ccc(Cl)cc1 , please.
Given back: 0.04

Asked: Observed IC50 on glycine (GLY) site of the NMDA receptor (Rattus norvegicus, UniProt P35439) for Cc1c([N+](=O)[O-])cc2[nH]c(=O)c(=O)[nH]c2c1CN(C)C(=O)Cc1ccccc1 , please.
Given back: 0.02

P: Cc1c([N+](=O)[O-])cc2[nH]c(=O)c(=O)[nH]c2c1CN(C)C(=O)CC1CCCCC1
Q: COc1ccc(C(=O)N(C)Cc2c(C)c([N+](=O)[O-])cc3[nH]c(=O)c(=O)[nH]c23)cc1
Asked: Input pair: P , Q . Output: entry with lower IC50. Kindly give the label for the entry you pick.
Given back: Q
(Q: 0.005 µM, P: 0.2 µM)
